Target: mSPSB1ΔSB (murine)
Assay: ITC; 100 μM peptide titrated into 10 μM mSPSB protein; 22 °C; 20 mM Tris, 150 mM sodium chloride, 2.5 mM calcium chloride, pH 8.0; single binding site model
Please go through the items and note down their pKd.
Reminder that pKd is minus the log10 of a molar concentration.

Lab book: pKd of AAANELNNNLPGGA (human prostate apoptosis response protein-4 (hPar-4), residues 64-77; also called shorter wild-type hPar-4 peptide; source: synthetic peptide (GenScript Corporation)) [hPar-4(64–77)] noted as 6.68

Short answer for AAANDINNNLPGGA (human prostate apoptosis response protein-4 (hPar-4), residues 64-77, E68D and L69I (DINNN motif as in VASA); also called double mutant; source: synthetic peptide (GenScript Corporation)) [[E68D,L69I]hPar-4(64–77)] : pKd was 7.40
